# ASSAY TARGET: T1, Human CXCR2 (human, UniProt P25025 1-360)
# T1 sequence: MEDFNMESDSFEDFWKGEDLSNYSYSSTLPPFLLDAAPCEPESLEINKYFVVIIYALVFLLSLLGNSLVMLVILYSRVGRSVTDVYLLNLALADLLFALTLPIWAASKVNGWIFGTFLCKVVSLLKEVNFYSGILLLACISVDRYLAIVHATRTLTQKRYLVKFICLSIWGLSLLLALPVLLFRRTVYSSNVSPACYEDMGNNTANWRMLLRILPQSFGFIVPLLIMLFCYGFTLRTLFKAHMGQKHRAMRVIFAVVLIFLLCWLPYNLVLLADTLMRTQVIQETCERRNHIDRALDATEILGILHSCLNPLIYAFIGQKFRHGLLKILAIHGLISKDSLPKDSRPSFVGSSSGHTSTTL
# TEST PROTOCOL: cell-based or functional assay
MEASURED PROPERTY: [35S]GTPγS IC50 (GRO-α)

Challenge: Report [35S]GTPγS IC50 (GRO-α), nothing else, for this binder: CXCR20028 (other, Biparatopic: two VHH joined by a GlySer linker; also called 97A9-35GS-54B12; 97A9-54B12; not shown: C-terminal c-myc tag and His6 tag coded by pAX100) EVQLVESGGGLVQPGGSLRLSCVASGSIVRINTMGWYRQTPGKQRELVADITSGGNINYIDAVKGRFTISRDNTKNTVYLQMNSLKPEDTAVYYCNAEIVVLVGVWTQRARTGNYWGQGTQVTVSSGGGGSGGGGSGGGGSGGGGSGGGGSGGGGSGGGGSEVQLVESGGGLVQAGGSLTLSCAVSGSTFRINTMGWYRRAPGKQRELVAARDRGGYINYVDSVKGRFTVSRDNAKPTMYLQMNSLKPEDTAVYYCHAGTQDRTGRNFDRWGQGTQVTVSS
Response given: 1.38 nM
